Where these numbers come from: patent US20110301200A1

Exercise: state measured fold induction at 1 µM for each of the compounds provided.
# assayed target: TR-β (Homo sapiens, UniProt P10828)
# Sequence (P10828 whole entry): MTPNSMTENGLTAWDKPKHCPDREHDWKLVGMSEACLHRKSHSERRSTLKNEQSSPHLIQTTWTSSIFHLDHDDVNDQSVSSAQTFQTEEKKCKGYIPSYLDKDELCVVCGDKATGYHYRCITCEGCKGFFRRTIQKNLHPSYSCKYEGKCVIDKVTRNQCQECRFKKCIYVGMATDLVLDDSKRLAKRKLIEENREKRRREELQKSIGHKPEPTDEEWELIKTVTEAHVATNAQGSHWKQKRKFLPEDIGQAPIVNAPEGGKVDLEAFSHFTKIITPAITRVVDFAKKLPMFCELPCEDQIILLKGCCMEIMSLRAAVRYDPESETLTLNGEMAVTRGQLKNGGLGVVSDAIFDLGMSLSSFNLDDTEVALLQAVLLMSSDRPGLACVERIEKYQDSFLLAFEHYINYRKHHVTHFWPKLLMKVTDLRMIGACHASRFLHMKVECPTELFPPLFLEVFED
# measurement protocol: In vitro TR-β activity (in-house protocol)
# Type: cell-based
# experimental setup: Conc. 1000 nM; read-out: TR-β Fold Induction w.r.t T3(100 nm)
Give only the figure.

Exam item: Provide one value: measured fold induction at 1 µM of CCN(CC)S(=O)(=O)c1cc(Oc2c(Br)cc(C=NOC(C)C(=O)O)cc2Br)ccc1O (centres unmarked) [Example 38]
Marked response: 82.2

Exam item: Provide one value: measured fold induction at 1 µM of O=C(O)CON=Cc1cc(Br)c(Oc2ccc(O)c(C(=O)c3ccc(Cl)cc3)c2)c(Br)c1 [Example 28]
Marked response: 58.9

Exam item: Give reported fold induction at 1 µM value for CCC(ON=Cc1cc(Br)c(Oc2ccc(O)c(-c3ccccc3)c2)c(Br)c1)C(=O)O (centres unmarked) [Example 21]
Marked response: 63.8

Exam item: Provide only the value of recorded fold induction at 1 µM for CC(C)(ON=Cc1cc(Br)c(Oc2ccc(O)c(Cc3ccccc3)c2)c(Br)c1)C(=O)O [Example 22]
Marked response: 73.9

Exam item: Please list fold induction at 1 µM recorded for the compound CCC(C)c1cc(Oc2c(Cl)cc(C=NOCC(=O)O)cc2Cl)ccc1O (centres unmarked) [Example 2]
Marked response: 115

Exam item: Read off the recorded fold induction at 1 µM for O=C(O)CON=Cc1cc(Br)c(Oc2ccc(O)c(C(=O)c3cccc(Cl)c3)c2)c(Br)c1 [Example 33]
Marked response: 62.1

Exam item: Tell me fold induction at 1 µM reported for CCC(C)c1cc(Oc2c(Cl)cc(C=NOC(C)C(=O)O)cc2Cl)ccc1O (centres unmarked) [Example 23]
Marked response: 90

Exam item: Complete the entry with fold induction at 1 µM for O=C(O)CON=Cc1cc(Br)c(Oc2ccc(O)c(C(=O)c3ccc(Br)cc3)c2)c(Br)c1 [Example 31]
Marked response: 50.3
